- ASSAYED TARGET: human Claudin18.2 (human)
- TEST PROTOCOL: cell-based or functional assay
MEASURED QUANTITY: CDC % Relative activity

| BINDER | OBSERVED MEASUREMENT |
| --- | --- |
| 279E8B8 (antibody, V domains shown) VH: QAYLQQSGAELVRSGASVKISCKASGYTFASHNMHWVKQTPGQGLEWIGYIYPGNGGTKYNQKFTGKATLSADTSSSTAYLQISSLTSEDSAVYFCARDYFGNSFVYWGQGTLVTVSA VL: DIVMTQSPSSLTEKAGEKVSMRCKSSQSLLNSGNQKNYLTWYQQKPGQPPKLLIYWASTRESGVPDRFTGSGSGTDFTLTISSVQADDLAVYYCQNDYMYPFTFGAGTKLELK | 129% |
| 232C5E3 (antibody, V domains shown) VH: QAYLQQSGAELVRSGASVKMSCKASGYTFTSHNIHWIKQTPGKGLEWIGYIYPGNGGTNYNQKFKAKATLTADTSSSTAYMQISSLTSEDSAVYFCARDYYGNSFAYWGQGTLVTVSA VL: DIMMTQSPSSLTETAGEKVSMSCKSSQSLLNSGNQKNYLTWYQQKPGQPPKLLIYWASTRESGVPDRFSGSGSGTDFTLTISSVQAEDLAVYYCQNGYRFPFTFGAGTKLELK | 226% |
| 213B10A4 (antibody, V domains shown) VH: QAYVQQSGAELVRSGASVKMSCRASGYTFTSYNMHWVKQTPGQGLEWIGYIYPGNGGTYYNQKFKGKATLTADTSSSTAYMQISSLTSEDSAVYFCATGRGFAYWGQGTLVTVSA VL: DIVMTQSPSSLTVTAGEKVTMSCKSSQSLLNSGNQKNYLTWYQQKPGQPPKLLIYRASTRESGVPDRFTGSGFGTDFTLTISSVQAEDLAVYYCQNDYSYPLTFGAGTKLELK | 121% |
| 250F4G4 (antibody, V domains shown) VH: QAYLQQSGAELVRSGASVKMSCKASGYTFTSHNMHWVKQTPGQGLEWIGYIYPGNGRTNYNQKFKGKATLTADTSSSTAYMQISSLTSEDSAVYFCTRDYYGNSFAYWGQGTLVTVSA VL: DIVMTQSPSSLTEKVGERVSMSCKSSQSLFNSGNQKNYLTWYQQKPGQPPKLLIYWASTRESGVPDRFTGSGSGTDFTLTISSVQAEDLAVYYCQNDYWYPFTFGAGTKLELK | 126% |

Reference source: patent US20220073643A1
